These data points were gathered from patent US20110172296A1.

system: human TGF-beta1 mRNA; assay: Dose-dependent confirmation of antisense inhibition of human TGF-beta1 in HuVEC cells, electroporation (Example 6); type: cell-based; conditions: 2.5 nM oligonucleotide
In the oligonucleotide strings, read from the 5' end, every base follows the letter of its sugar. An asterisk marks phosphorothioate; unmarked linkages are phosphodiester. Other units and linkages are bracketed, terminal groups are in braces. A string of capitals states the bases alone. e = 2'-O-(2-methoxyethyl) (MOE); [5mC] = 5-methylcytosine; d = 2'-deoxy (DNA)
Below: a set of entries, each annotated with reported percent inhibition of TGF-beta1 mRNA relative to untreated control cells.
State just the number; it will be interpreted in %.

These recorded examples may help you get a feel for the data.
| SUBSTANCE | REPORTED |
| --- | --- |
| 413982 (antisense GCCTCCGGCTCCCAGCGGCA; sugars from the 5' end e2 d13 e5, backbone and methylation of C not given here) [compound 413982] | 85 |
| 414040 (antisense e[5mC]*eT*d[5mC]*dT*d[5mC]*dT*d[5mC]*d[5mC]*dA*dT*d[5mC]*dT*dT*dT*dA*eA*eT*eG*eG*eG) [compound 414040] | 93 |
| 414035 (antisense GTCCTTAAATACAGCCCCCA; sugars from the 5' end e2 d13 e5, backbone and methylation of C not given here) [compound 414035] | 89 |

Task: Data request, read-out percent inhibition of TGF-beta1 mRNA relative to untreated control cells, for 414036 (antisense GTGTCCTTAAATACAGCCCC; sugars from the 5' end e2 d13 e5, backbone and methylation of C not given here) [compound 414036]
Result: 83

* * *

system: human TGF-beta1 mRNA; assay: Antisense inhibition of human TGF-beta1 mRNA in HuVEC cells, single 10 nM dose, Lipofectamine 2000 (Example 2); type: cell-based; conditions: 10 nM oligonucleotide, HuVEC, relative to untreated control cells; gapmers targeted to SEQ ID NO: 1
In the oligonucleotide strings, read from the 5' end, every base follows the letter of its sugar. An asterisk marks phosphorothioate; unmarked linkages are phosphodiester. Other units and linkages are bracketed, terminal groups are in braces. A string of capitals states the bases alone. e = 2'-O-(2-methoxyethyl) (MOE); [5mC] = 5-methylcytosine; d = 2'-deoxy (DNA)
PROPERTY_LABEL: % inhibition (%)
State just the number; it will be interpreted in %.

These recorded examples may help you get a feel for the data.
| SUBSTANCE | % inhibition / % |
| --- | --- |
| 413986 (antisense eG*eT*d[5mC]*d[5mC]*d[5mC]*d[5mC]*dG*d[5mC]*dG*d[5mC]*d[5mC]*dT*d[5mC]*d[5mC]*dG*eG*e[5mC]*eT*e[5mC]*e[5mC]) [compound 413986] | 69 |
| 414028 (antisense e[5mC]*e[5mC]*dA*dT*dT*dA*dG*d[5mC]*dA*d[5mC]*dG*d[5mC]*dG*dG*dG*eT*eG*eA*e[5mC]*e[5mC]) [compound 414028] | 75 |
| 414001 (antisense e[5mC]*eA*dG*dG*dT*d[5mC]*dG*dG*dA*dG*dA*dG*dA*dG*dA*eT*e[5mC]*e[5mC]*eG*eT) [compound 414001] | 78 |
| 414036 (antisense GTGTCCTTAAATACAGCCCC; sugars from the 5' end e2 d13 e5, backbone and methylation of C not given here) [compound 414036] | 87 |
| 413972 (antisense e[5mC]*eT*d[5mC]*dG*dT*d[5mC]*d[5mC]*d[5mC]*dT*d[5mC]*d[5mC]*dT*d[5mC]*d[5mC]*d[5mC]*eG*e[5mC]*eT*e[5mC]*e[5mC]) [compound 413972] | 61 |

Moving on to another substance below.
Task: API: value(readout= % inhibition, system= human TGF-beta1 mRNA, query= 413975 (antisense eG*e[5mC]*dG*dG*d[5mC]*dA*dA*d[5mC]*dG*dG*dA*dA*dA*dA*dG*eT*e[5mC]*eT*e[5mC]*eA) [compound 413975] )
Result: 73

* * *

tested on: human TGF-beta1 mRNA; test: Antisense inhibition of human TGF-beta1 mRNA in HuVEC cells, single 10 nM dose, Lipofectamine 2000 (Example 2); type: cell-based; details: 10 nM oligonucleotide, HuVEC, relative to untreated control cells; gapmers targeted to SEQ ID NO: 1
In the oligonucleotide strings, read from the 5' end, every base follows the letter of its sugar. An asterisk marks phosphorothioate; unmarked linkages are phosphodiester. Other units and linkages are bracketed, terminal groups are in braces. A string of capitals states the bases alone. e = 2'-O-(2-methoxyethyl) (MOE); [5mC] = 5-methylcytosine; d = 2'-deoxy (DNA)
Hi, to clarify the labels: MET covers % inhibition from 80% upward, NOT MET covers anything below 80%.

| SUBSTANCE | CLASS |
| --- | --- |
| 414003 (antisense eA*eA*dG*dG*dT*dG*dG*dG*dT*dG*dG*dT*d[5mC]*dT*dT*eG*eA*eA*eT*eA) [compound 414003] | NOT MET |

Task: Item 414017 (antisense eA*eT*dA*dA*d[5mC]*d[5mC]*dT*dA*dG*dA*dT*dG*dG*dG*d[5mC]*eG*e[5mC]*eG*eA*eT) [compound 414017] with % inhibition of 80% or above?
Result: NOT MET

Task: Item 414040 (antisense e[5mC]*eT*d[5mC]*dT*d[5mC]*dT*d[5mC]*d[5mC]*dA*dT*d[5mC]*dT*dT*dT*dA*eA*eT*eG*eG*eG) [compound 414040] with % inhibition of 80% or above?
Result: MET

Task: Item 414006 (antisense eT*eA*d[5mC]*d[5mC]*dA*dG*dA*dA*dG*dG*dT*dG*dG*dG*dT*eG*eG*eT*e[5mC]*eT) [compound 414006] with % inhibition of 80% or above?
Result: MET

Task: Item 413991 (antisense e[5mC]*eG*dG*d[5mC]*dG*dG*d[5mC]*dA*dA*dA*dG*dG*dG*dA*dG*eG*e[5mC]*eG*eG*eT) [compound 413991] with % inhibition of 80% or above?
Result: NOT MET

Task: Item 413995 (antisense e[5mC]*e[5mC]*d[5mC]*dG*dA*dG*dG*dG*d[5mC]*dT*dG*dG*dT*d[5mC]*d[5mC]*eG*eG*eA*eA*eT) [compound 413995] with % inhibition of 80% or above?
Result: NOT MET

* * *

system: human TGF-beta1 mRNA; assay: Antisense inhibition of human TGF-beta1 mRNA in HuVEC cells, single 10 nM dose, Lipofectamine 2000 (Example 2); type: cell-based; conditions: 10 nM oligonucleotide, HuVEC, relative to untreated control cells; gapmers targeted to SEQ ID NO: 2
In the oligonucleotide strings, read from the 5' end, every base follows the letter of its sugar. An asterisk marks phosphorothioate; unmarked linkages are phosphodiester. Other units and linkages are bracketed, terminal groups are in braces. A string of capitals states the bases alone. e = 2'-O-(2-methoxyethyl) (MOE); [5mC] = 5-methylcytosine; d = 2'-deoxy (DNA)
Below: a set of entries, each annotated with reported % inhibition.
State just the number; it will be interpreted in %.

These recorded examples may help you get a feel for the data.
| SUBSTANCE | PROPERTY_LABEL | UNITS_OF_MEASURE | REPORTED |
| --- | --- | --- | --- |
| 414087 (antisense eG*eT*dG*dA*d[5mC]*d[5mC]*dT*dT*d[5mC]*d[5mC]*dA*dA*d[5mC]*dT*dT*eT*eG*eA*eA*eT) [compound 414087] | % inhibition | % | 77 |
| 414098 (antisense eA*eA*dG*dG*dG*dA*dG*dG*dA*dA*dT*dA*dA*dG*dG*eT*e[5mC]*eA*eG*eA) [compound 414098] | % inhibition | % | 70 |

Moving on to another substance below.
Task: Data request, read-out % inhibition, for 414093 (antisense eA*eA*d[5mC]*dA*dT*dT*d[5mC]*d[5mC]*dA*dA*d[5mC]*dA*d[5mC]*dT*dG*eA*eG*eT*eT*e[5mC]) [compound 414093]
Result: 68

* * *

tested on: human TGF-beta1 mRNA; experiment: Antisense inhibition of human TGF-beta1 mRNA in HuVEC cells, single 10 nM dose, Lipofectamine 2000 (Example 2); assay type: cell-based; settings: 10 nM oligonucleotide, HuVEC, relative to untreated control cells; gapmers targeted to SEQ ID NO: 1
In the oligonucleotide strings, read from the 5' end, every base follows the letter of its sugar. An asterisk marks phosphorothioate; unmarked linkages are phosphodiester. Other units and linkages are bracketed, terminal groups are in braces. A string of capitals states the bases alone. e = 2'-O-(2-methoxyethyl) (MOE); [5mC] = 5-methylcytosine; d = 2'-deoxy (DNA)
PROPERTY_LABEL: % inhibition (%)
State just the number; it will be interpreted in %.

| SUBSTANCE | UNITS_OF_MEASURE | % inhibition |
| --- | --- | --- |
| 414039 (antisense eG*e[5mC]*dA*d[5mC]*dG*dG*dG*dT*dG*dT*d[5mC]*d[5mC]*dT*dT*dA*eA*eA*eT*eA*e[5mC]) [compound 414039] | % | 83 |

Task: Data request, read-out % inhibition, for 413997 (antisense eA*eA*dA*dA*dG*dT*d[5mC]*dT*dT*dT*dG*d[5mC]*dG*dG*dG*eA*eG*eG*e[5mC]*e[5mC]) [compound 413997]
Result: 41

Task: Data request, read-out % inhibition, for 413974 (antisense eG*eG*d[5mC]*dA*dA*d[5mC]*dG*dG*dA*dA*dA*dA*dG*dT*d[5mC]*eT*e[5mC]*eA*eA*eA) [compound 413974]
Result: 69
